In this section we review reported IC50 values for a set of molecules.
- assay system: CDK5 complexed with p25 (Homo sapiens)
- protocol: Cyclin dependent kinase activity assay, phosphorylation of synthetic peptide PKTPKKAKKLRRR
- measurement setup: CDK5 complexed with p25, 0.1 mM ATP; read-out: CDK 5 Activity*
Counter-ions that a name gives are not always drawn.

COC(=O)/C=C/c1ccc(O)c(/C=N/NC(N)=S)c1 ... 0.5 to 2 µM

*Q* Give the measured IC50 of Cc1cc(-c2cc(-c3ccc(O)cc3)ccc2O)nc(N)n1 .
*A* < 0.5 µM

*Q* What value of measured IC50 is listed for NC(=O)N/N=C/c1cc(-c2cccc(CO)c2)ccc1O [Example 9, hydrochloride] ?
*A* 0.5 to 2 µM

*Q* Could you tell me which IC50 is on file for Nc1nc(NCCO)cc(-c2cc(-c3ccc(O)cc3)ccc2O)n1 ?
*A* < 0.5 µM

*Q* IC50 lookup needed for Nc1ncc(-c2ccc(O)c(-c3ccnc(N)n3)c2)cn1 , thanks.
*A* 0.5 to 2 µM

*Q* Data request, read-out IC50, for NC(=S)N/N=C/c1cc(-c2ccc(O)cc2)c(O)cc1O
*A* 2 to 5 µM

*Q* Any idea what IC50 was measured for Nc1nc(-c2cc(-c3ccc(O)cc3)ccc2O)cc(N2CCOCC2)n1 ?
*A* < 0.5 µM

----------
- assay system: CDK5 complexed with p25 (Homo sapiens, UniProt Q00535)
- Sequence (Q00535 whole entry): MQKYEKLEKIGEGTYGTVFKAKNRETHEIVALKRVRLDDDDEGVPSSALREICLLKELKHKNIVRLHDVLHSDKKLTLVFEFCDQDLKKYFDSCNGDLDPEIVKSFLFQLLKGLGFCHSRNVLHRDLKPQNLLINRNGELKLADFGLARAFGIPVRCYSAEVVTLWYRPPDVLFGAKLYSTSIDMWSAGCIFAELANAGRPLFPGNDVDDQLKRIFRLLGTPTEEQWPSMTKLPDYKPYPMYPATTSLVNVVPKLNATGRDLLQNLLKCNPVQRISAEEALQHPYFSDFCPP
- Sequence (Q15078 99-307 partner limits assumed): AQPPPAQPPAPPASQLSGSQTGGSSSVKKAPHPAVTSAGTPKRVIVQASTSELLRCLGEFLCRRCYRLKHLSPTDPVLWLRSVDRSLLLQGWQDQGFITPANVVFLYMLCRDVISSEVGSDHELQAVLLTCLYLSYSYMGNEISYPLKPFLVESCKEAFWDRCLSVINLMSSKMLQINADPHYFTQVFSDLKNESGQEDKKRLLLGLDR
- protocol: Cyclin dependent kinase activity assay, phosphorylation of synthetic peptide PKTPKKAKKLRRR
- measurement setup: CDK5 complexed with p25, 0.1 mM ATP; read-out: CDK 5 Activity*
Where a name gives a salt, the structure may show the parent alone.
Quick reference for IC50 among some compounds

*Q* Given the compound NC(=S)N/N=C/c1cc(-c2ccc(O)c(F)c2)ccc1O , what is its reported IC50?
*A* < 500 nM

*Q* Given the entry NC(=S)N/N=C/c1cc(-c2ccc(O)cc2O)ccc1O , report its measured IC50.
*A* < 500 nM

*Q* For the compound shown here, NC(=O)N/N=C/c1c(O)ccc2ccccc12 [Example 41, hydrochloride] , give the reported IC50.
*A* < 500 nM

*Q* Which IC50 is listed for NC(=S)N/N=C/c1cc(/C=C/C(=O)O)ccc1O ?
*A* < 500 nM

*Q* Endpoint output: IC50 of NC(=S)N/N=C/c1cc(-c2cccc(C(=O)O)c2)ccc1O . Value?
*A* 2000 to 5000 nM

----------
- assay system: CDK2 complexed with cyclin A (Homo sapiens, UniProt P24941)
- protocol: Cyclin dependent kinase activity assay, phosphorylation of synthetic peptide PKTPKKAKKLRRR
- measurement setup: 0.1 mM ATP, read-out: CDK 2 Activity*
parameter: IC50

NC(=S)N/N=C/c1cc(CCC(=O)O)ccc1O [Example 40] ... < 500 nM
NC(=S)N/N=C/c1cc(-c2cncnc2)ccc1O [Example 32] ... 2000 to 5000 nM
NC(=S)N/N=C/c1cc(-c2ccc(F)cc2)ccc1O [Example 16] ... 2000 to 5000 nM
Nc1nccc(-c2c(O)ccc3ccccc23)n1 [Example 46] ... > 5000 nM
Nc1cc(-c2cc(-c3ccnc(N)n3)ccc2O)nc(N)n1 [Example 74] ... < 500 nM

*Q* Query for CDK2 complexed with cyclin A (Homo sapiens, UniProt P24941): what IC50 does the record show for Nc1nccc(-c2cc(-c3c[nH]c(=O)[nH]c3=O)ccc2O)n1 [Example 70] ?
*A* > 5000 nM

*Q* Form entry - test system: CDK2 complexed with cyclin A (Homo sapiens, UniProt P24941); read-out: IC50; molecule: NC(=S)N/N=C/c1cc(-c2ccsc2)ccc1O [Example 34]
*A* < 500 nM

*Q* Give IC50 (CDK2 complexed with cyclin A (Homo sapiens, UniProt P24941)) of the following molecule: Nc1cccc(-c2cc(-c3ccnc(N)n3)ccc2O)n1 [Example 71]
*A* < 500 nM

*Q* Notebook: pull reported IC50 for CDK2 complexed with cyclin A (Homo sapiens, UniProt P24941), entry Nc1nc(-c2cccc([N+](=O)[O-])c2)cc(-c2cc(-c3ccc(O)cc3)ccc2O)n1 [Example 88]
*A* < 500 nM

*Q* // map Nc1nc(N[C@H](CO)Cc2ccccc2)cc(-c2cc(-c3ccc(O)cc3)ccc2O)n1 [Example 87] to recorded IC50 (system: CDK2 complexed with cyclin A (Homo sapiens, UniProt P24941))
*A* < 500 nM

*Q* Test system CDK2 complexed with cyclin A (Homo sapiens, UniProt P24941); read-out IC50; what value for COc1cc(-c2cc(-c3ccc(O)cc3)ccc2O)nc(N)n1 [Example 50] ?
*A* < 500 nM

----------
- assay system: CDK2 complexed with cyclin A (Homo sapiens)
- protocol: Cyclin dependent kinase activity assay, phosphorylation of synthetic peptide PKTPKKAKKLRRR
- measurement setup: 0.1 mM ATP, read-out: CDK 2 Activity*
pIC50: −log10 of the molar value. Where a name gives a salt, the structure may show the parent alone.
// reported pIC50 for each item listed

Illustrative cases are given below, each with its answer.
NC(=S)N/N=C/c1cc(-c2cccc(F)c2)ccc1O ... 5.70 to 6.30
NC(=S)N/N=C/c1cc(/C=C/C(=O)O)ccc1O ... > 6.30
Nc1nc(N[C@@H](CO)Cc2ccccc2)cc(-c2cc(-c3ccc(O)cc3)ccc2O)n1 ... > 6.30

*Q* # query: pIC50 of entry COC(=O)c1cccc(-c2ccc(O)c(/C=N/NC(N)=S)c2)c1
*A* < 5.30

*Q* Sample COC(=O)c1cccc(-c2ccc(O)c(/C=N/NC(N)=O)c2)c1 [Example 13, hydrochloride] — what was its pIC50?
*A* 5.30 to 5.70

----------
A collection of compounds and their measured IC50
- assay system: CDK2 complexed with cyclin A (Homo sapiens, UniProt P24941)
- protocol: Cyclin dependent kinase activity assay, phosphorylation of synthetic peptide PKTPKKAKKLRRR
- measurement setup: 0.1 mM ATP, read-out: CDK 2 Activity*
Counter-ions that a name gives are not always drawn.

Some solved entries appear below for comparison.
Nc1nc(-c2cc(-c3ccc(O)cc3)ccc2O)cc(N2CCCC(CO)C2)n1 (centres unmarked) ... < 500 nM
NC(=O)N/N=C/c1cc(-c2ccc(O)cc2)c(O)cc1O [Example 29, hydrochloride] ... 500 to 2000 nM
NC(=O)N/N=C/c1cc(-c2cccc(CO)c2)ccc1O [Example 9, hydrochloride] ... 2000 to 5000 nM
Nc1nc(-c2cc(-c3ccc(O)cc3)ccc2O)cs1 ... < 500 nM
Nc1nc(NCCCCCO)cc(-c2cc(-c3ccc(O)cc3)ccc2O)n1 ... < 500 nM
Nc1cccc(-c2cc(-c3ccc(O)cc3)ccc2O)n1 ... < 500 nM

*Q* // lookup IC50 for Nc1cnc(-c2cc(-c3ccc(O)cc3)ccc2O)nc1N
*A* < 500 nM

*Q* I have this compound here, NC(=S)N/N=C/c1cc(-c2ccc3[nH]ccc3c2)ccc1O , and I need its recorded IC50.
*A* < 500 nM

----------
Items are presented alongside their recorded IC50.
- assay system: CDK5 complexed with p25 (Homo sapiens, UniProt Q00535)
- protocol: Cyclin dependent kinase activity assay, phosphorylation of synthetic peptide PKTPKKAKKLRRR
- measurement setup: CDK5 complexed with p25, 0.1 mM ATP; read-out: CDK 5 Activity*
- Description: The assay of cyclin dependent kinase activity was determined by monitoring the phosphorylation of a synthetic peptide, PKTPKKAKKLRRR. The assay mixture contained 0.1 mM cold ATP, ^33P-γ-ATP (2000-4000 cpm/μL), 0.1 mM peptide, 1 mM DTT, and 10 mM MgCl2 in 100 mM HEPES buffer pH 7.4. […] After addition of scintillation fluid to the sealed plate, phosphorylated peptide was quantified in a scintillation counter.
Counter-ions that a name gives are not always drawn.

The examples below pair each entry with its known result.
NC(=S)N/N=C/c1cc(-c2ccc([N+](=O)[O-])cc2)ccc1O ... 2000 to 5000 nM
NC(=S)N/N=C/c1cc(-c2ccc(O)cc2)ccc1O ... < 500 nM
NC(=O)N/N=C/c1cc(-c2ccc(O)cc2)ccc1O [Example 22, hydrochloride] ... < 500 nM
NC(=S)N/N=C/c1cc2ccc(O)cc2cc1O ... < 500 nM
NC(=O)N/N=C/c1cc(-c2ccccc2)ccc1O [Example 5, hydrochloride] ... < 500 nM
COc1ccc(-c2ccc(O)c(/C=N/NC(N)=S)c2)cc1F ... 500 to 2000 nM

// switching to the query molecule
*Q* Could you share which IC50 value was measured for Nc1cc(-c2cc(-c3ccc(O)cc3)ccc2O)nc(N)n1 ?
*A* < 500 nM

----------
- assay system: CDK5 complexed with p25 (Homo sapiens, UniProt Q00535)
- protocol: Cyclin dependent kinase activity assay, phosphorylation of synthetic peptide PKTPKKAKKLRRR
- measurement setup: CDK5 complexed with p25, 0.1 mM ATP; read-out: CDK 5 Activity*
Counter-ions that a name gives are not always drawn.
parameter: IC50

Past entries and their recorded results:
Nc1cccc(-c2cc(-c3cc(-c4ccc(O)cc4)ccc3O)nc(N)n2)c1 [Example 91] ... < 500 nM
COc1cccc(-c2ccc(O)c(/C=N/NC(N)=S)c2)c1 [Example 6] ... 2000 to 5000 nM
COC(=O)c1cccc(-c2ccc(O)c(/C=N/NC(N)=O)c2)c1 [Example 13, hydrochloride] ... > 5000 nM
NC(=S)N/N=C/c1cc(-c2cccc(CO)c2)ccc1O [Example 8] ... > 5000 nM
NC(=S)N/N=C/c1cc(-c2ccc(F)cc2)ccc1O [Example 16] ... 500 to 2000 nM
NC(=S)N/N=C/c1cc(-c2ccsc2)ccc1O [Example 34] ... 500 to 2000 nM

# evaluate next
*Q* Could you share which IC50 value was measured for NC(=S)N/N=C/c1cc(-c2ccc(O)c(O)c2)ccc1O [Example 25] ?
*A* < 500 nM
